METHOD NOTES: Unbound cinacalcet fraction in plasma (30 kD ultrafiltration, RP-HPLC)
Format: in vitro ADME, rabbit
CONDITION INFO: rabbit, rabbit plasma; Recon conc. 1 mg/ml; 5 min

SMILES RECORD | fraction unbound at 5 min, 0.2 mg/mL
C[C@@H](NCCCc1cccc(C(F)(F)F)c1)c1cccc2ccccc12 | 0.11
